target: immunoproteasome LMP7/B5i subunit (Homo sapiens, UniProt P28062); assay: Caliper-based proteasome enzymatic activity assay, LMP7; conditions: human recombinant immunoproteasome 0.3 nM, FAM peptide substrate 1 μM, rt 3 h
pIC50: −log10 of the molar value.

Structure smiles string: C[C@@H]1COC[C@@H](C)N1C(=O)C(C#N)=Cc1cccc(CCOC(=O)N[C@@H](Cc2ccccc2)B(O)O)c1
Assayed target: immunoproteasome LMP7/B5i subunit (Homo sapiens, UniProt P28062)
pIC50: 9.22
//
Structure smiles string: CCN(CC)C(=O)C(C#N)=Cc1cc(C#N)cc(CCOC(=O)N[C@@H](Cc2ccc(C)cc2)B(O)O)c1
Assayed target: immunoproteasome LMP7/B5i subunit (Homo sapiens, UniProt P28062)
pIC50: 9.22
//
Structure smiles string: CN(C)C(=O)C(C#N)=Cc1cc(OCCC(=O)N[C@@H](Cc2ccccc2)B(O)O)ccc1F
Assayed target: immunoproteasome LMP7/B5i subunit (Homo sapiens, UniProt P28062)
pIC50: 8.22
//
Structure smiles string: CCN(CC)C(=O)C(C#N)=Cc1ccc2c(c1)CN(CC(=O)N[C@@H](Cc1ccccc1)B(O)O)CC2
Assayed target: immunoproteasome LMP7/B5i subunit (Homo sapiens, UniProt P28062)
pIC50: 8.12
//
Structure smiles string: COc1ccc(C=C(C#N)C(=O)N(C)C)cc1OCCC(=O)N[C@@H](Cc1ccccc1)B(O)O
Assayed target: immunoproteasome LMP7/B5i subunit (Homo sapiens, UniProt P28062)
pIC50: 8.40
//
Structure smiles string: N#CC(=Cc1cc(OCCC(=O)N[C@@H](Cc2ccccc2)B(O)O)ccc1F)c1ccccn1
Assayed target: immunoproteasome LMP7/B5i subunit (Homo sapiens, UniProt P28062)
pIC50: 8.54
//
Structure smiles string: N#CC(=Cc1cccc(OCCC(=O)N[C@@H](Cc2coc3ccccc23)B(O)O)c1)c1ccccn1
Assayed target: immunoproteasome LMP7/B5i subunit (Homo sapiens, UniProt P28062)
pIC50: 9.10

* * *

target: immunoproteasome LMP7/B5i subunit (Homo sapiens, UniProt P28062); assay: Caliper-based proteasome enzymatic activity assay, LMP7; conditions: human recombinant immunoproteasome 0.3 nM, FAM peptide substrate 1 μM, rt 3 h
Entries and their log10(IC50)
Measured quantity: log10(IC50) (log10 of the value in nM)

Molecule: CN(C)C(=O)C(C#N)=Cc1cccc(OCCC(=O)N[C@@H](Cc2ccccc2)B(O)O)c1
log10(IC50): 0.48
//
Molecule: CCN(C(=O)C(C#N)=Cc1cccc(CCOC(=O)N[C@@H](Cc2ccccc2)B(O)O)c1)C(C)(C)C
log10(IC50): 0.34
//
Molecule: N#CC(=Cc1cccc(CCOC(=O)N[C@@H](Cc2ccccc2)B(O)O)c1)n1cncn1
log10(IC50): 0.18
//
Molecule: Cc1ccc(C[C@H](NC(=O)OCCc2cccc(C=C(C#N)c3ccccn3)c2)B(O)O)cc1
log10(IC50): 0.26
//
Molecule: CC(C)(C)C[C@H](NC(=O)CCOc1cccc(C=C(C#N)C(=O)NC(C)(C)C)c1)B(O)O
log10(IC50): 2.17
//
Molecule: CC(C)N(C(=O)C(C#N)=Cc1cccc(CCOC(=O)N[C@@H](Cc2ccccc2)B(O)O)c1)C(C)C (single isomer, unassigned) [Example 75]
log10(IC50): 0.15
//
Molecule: N#CC(=Cc1cccc(OCCC(=O)N[C@@H](Cc2ccccc2)B(O)O)c1)c1ccc(C(F)(F)F)cn1
log10(IC50): 0.70
//
Molecule: COCCNC(=O)C(C#N)=Cc1cccc(OCCC(=O)N[C@@H](Cc2ccccc2)B(O)O)c1
log10(IC50): 0.66
//
Molecule: CN(C)C(=O)C(C#N)=Cc1cccc(CCCC(=O)N[C@@H](Cc2ccccc2)B(O)O)c1
log10(IC50): 1.08
//
Molecule: N#CC(=Cc1cccc(CCOC(=O)N[C@@H](Cc2ccccc2)B(O)O)c1)c1ccc(C(F)(F)F)cn1
log10(IC50): 0.58
//
Molecule: CCN(CC)C(=O)C(C#N)=Cc1cc(C#N)cc(CCOC(=O)N[C@@H](Cc2coc3ccccc23)B(O)O)c1
log10(IC50): -0.15
//
Molecule: CCNC(=O)C(C#N)=Cc1cccc(OCCC(=O)N[C@@H](Cc2ccccc2)B(O)O)c1
log10(IC50): 0.60
//
Molecule: CCN(C(=O)C(C#N)=Cc1cccc(CCOC(=O)N[C@@H](Cc2coc3ccccc23)B(O)O)c1)C1CCOCC1
log10(IC50): 0.08
//
Molecule: N#CC(=Cc1cccc(OCCC(=O)N[C@@H](Cc2ccccc2)B(O)O)c1)C(=O)NC1CCOCC1
log10(IC50): 0.70
//
Molecule: CCN(CC)C(=O)C(C#N)=Cc1cccc(CCOC(=O)N[C@@H](Cc2ccc(C)cc2)B(O)O)c1
log10(IC50): 0.30
//
Molecule: CCN(CC)C(=O)C(C#N)=Cc1cccc(CCOC(=O)N[C@@H](Cc2coc3ccccc23)B(O)O)c1
log10(IC50): 0.23
//
Molecule: CCN(C)C(=O)C(C#N)=Cc1cccc(CCOC(=O)N[C@@H](Cc2ccccc2)B(O)O)c1
log10(IC50): 0.66
//
Molecule: N#CC(=Cc1cccc(OCCC(=O)N[C@@H](Cc2ccccc2)B(O)O)c1)c1ncccc1F
log10(IC50): 0.90
//
Molecule: N#CC(=Cc1ccc(Cl)c(OCCC(=O)N[C@@H](Cc2ccccc2)B(O)O)c1Cl)c1ccccn1
log10(IC50): 1.15
//
Molecule: CC(C)(C)NC(=O)C(C#N)=Cc1cccc(CCC(=O)N[C@@H](Cc2ccccc2)B(O)O)c1
log10(IC50): 1.00
//
Molecule: CCN(CC)C(=O)C(C#N)=Cc1ccc2c(c1)CN(CC(=O)N[C@@H](Cc1ccc(C)cc1)B(O)O)CC2
log10(IC50): 1.54

* * *

molecular target: immunoproteasome LMP2 subunit (Homo sapiens); assay: Caliper-based proteasome enzymatic activity assay, LMP2; conditions: human recombinant immunoproteasome 0.3 nM, FAM peptide substrate 1 μM, rt 2 h
pIC50: −log10 of the molar value.
Reported pIC50 values are given for each entry in this list.

Structure smiles string: N#CC(=Cc1cccc(OCCC(=O)N[C@@H](Cc2coc3ccccc23)B(O)O)c1)c1ccccn1
Censoring operator: <
pIC50: 5.30
--
Structure smiles string: N#CC(=Cc1cccc(CCOC(=O)N[C@@H](Cc2ccccc2)B(O)O)c1)c1ccc(C(F)(F)F)cn1
Censoring operator: =
pIC50: 5.75
--
Structure smiles string: N#CC(=Cc1cccc(CCOC(=O)N[C@@H](Cc2ccccc2)B(O)O)c1)C(=O)N(C1CCOCC1)C1CCOCC1
Censoring operator: <
pIC50: 5.30
--
Structure smiles string: N#CC(=Cc1cccc(CCOC(=O)N[C@@H](Cc2ccccc2)B(O)O)c1)c1ccccn1
Censoring operator: =
pIC50: 5.45
--
Structure smiles string: Cc1ccc(C[C@H](NC(=O)NCCc2cccc(C=C(C#N)c3ncccn3)c2)B(O)O)cc1
Censoring operator: <
pIC50: 5.30
--
Structure smiles string: N#CC(=Cc1cccc(CCOC(=O)N[C@@H](Cc2ccccc2)B(O)O)c1)c1ccncn1
Censoring operator: =
pIC50: 6.26

* * *

molecular target: HT29 β5c (Homo sapiens); experiment: Inhibition of proteasome activity in cells (Proteasome-Glo), HT29/β5c; type: cell-based; details: HT-29 cells, 2 h incubation at 37° C.

Structure smiles string: CC(C)(C)NC(=O)C(C#N)=Cc1cccc(OCCC(=O)N[C@@H](Cc2ccccc2)B(O)O)c1
IC50: 73 nM

* * *

target: constitutive proteasome β5c subunit (Homo sapiens, UniProt P28074); assay: Caliper-based proteasome enzymatic activity assay, β5c; conditions: human recombinant constitutive proteasome 0.3 nM, FAM peptide substrate 1 μM, rt 3 h
So basically, the class depends on measured IC50, and the ranges are low (below 60 nM), middle (60 nM to below 500 nM), high (500 nM or more)

Compound: CCN(C(=O)C(C#N)=Cc1cccc(CCOC(=O)N[C@@H](Cc2ccccc2)B(O)O)c1)C(C)C
Cat: high

Compound: Cc1ccc(C[C@H](NC(=O)NCCc2cccc(C=C(C#N)n3cncn3)c2)B(O)O)cc1
Cat: high

Compound: CC1(C)COCCN1C(=O)C(C#N)=Cc1cccc(CCOC(=O)N[C@@H](Cc2ccccc2)B(O)O)c1
Cat: high

Compound: CCN(CC)C(=O)C(C#N)=Cc1ccc2c(c1)CN(CC(=O)N[C@@H](Cc1ccccc1)B(O)O)CC2
Cat: middle

Compound: CCN(CC)C(=O)C(C#N)=Cc1cccc(CCOC(=O)N[C@@H](Cc2ccc(Cl)cc2)B(O)O)c1
Cat: high

Compound: CN(C)C(=O)C(C#N)=Cc1ccc(F)c(OCCC(=O)N[C@@H](Cc2ccccc2)B(O)O)c1
Cat: low

Compound: CN(C(=O)C(C#N)=Cc1cccc(OCCC(=O)N[C@@H](Cc2ccccc2)B(O)O)c1)c1ccccc1
Cat: low

Compound: Cc1ccc(C[C@H](NC(=O)CCOc2cccc(C=C(C#N)C(=O)N(C)C)c2)B(O)O)c(C)c1
Cat: middle

Compound: CC(C)N(C(=O)C(C#N)=Cc1cccc(CCOC(=O)N[C@@H](Cc2ccccc2)B(O)O)c1)C(C)C (single isomer, unassigned) [Example 74]
Cat: high

Compound: CCN(C)C(=O)C(C#N)=Cc1cccc(CCOC(=O)N[C@@H](Cc2ccccc2)B(O)O)c1
Cat: high

Compound: N#CC(=Cc1cccc(CCNC(=O)N[C@@H](Cc2ccccc2)B(O)O)c1)c1ccc(C(F)(F)F)cn1
Cat: high

Compound: CCN(CC)C(=O)C(C#N)=Cc1cccc(CCNC(=O)N[C@@H](Cc2ccc(C)cc2)B(O)O)c1
Cat: high

Compound: CCN(CC)C(=O)C(C#N)=Cc1cccc(CCOC(=O)N[C@@H](Cc2coc3ccccc23)B(O)O)c1
Cat: middle

Compound: N#CC(=Cc1cccc(OCCC(=O)N[C@@H](Cc2ccccc2)B(O)O)c1)C(=O)N1CCOCC1
Cat: middle

Compound: COCCNC(=O)C(C#N)=Cc1cccc(OCCC(=O)N[C@@H](Cc2ccccc2)B(O)O)c1
Cat: middle

Compound: Cc1ccc(C[C@H](NC(=O)NCCc2cccc(C=C(C#N)c3ccc(C(F)(F)F)cn3)c2)B(O)O)cc1
Cat: high

Compound: N#CC(=Cc1cc(OCCC(=O)N[C@@H](Cc2ccccc2)B(O)O)ccc1F)c1ccccn1
Cat: low

Compound: CCN(CC)C(=O)C(C#N)=Cc1cc(C#N)cc(CCOC(=O)N[C@@H](Cc2ccc(C)cc2)B(O)O)c1
Cat: middle

Compound: CNC(=O)C(C#N)=Cc1cccc(OCCC(=O)N[C@@H](Cc2ccccc2)B(O)O)c1
Cat: low

Compound: N#CC(=Cc1ccc(F)c(OCCC(=O)N[C@@H](Cc2ccccc2)B(O)O)c1)c1ccccn1
Cat: low

Compound: Cc1ccc(C[C@H](NC(=O)OCCc2cccc(C=C(C#N)C(=O)N(C)C)c2)B(O)O)cc1
Cat: high

Compound: COc1cccnc1C(C#N)=Cc1cccc(OCCC(=O)N[C@@H](Cc2ccccc2)B(O)O)c1
Cat: middle

Compound: Cc1ccc(C[C@H](NC(=O)OCCc2cccc(C=C(C#N)C(=O)N3[C@@H](C)COC[C@@H]3C)c2)B(O)O)cc1
Cat: high

Compound: COc1ccc(C=C(C#N)C(=O)N(C)C)cc1OCCC(=O)N[C@@H](Cc1ccccc1)B(O)O
Cat: low

Compound: CCN(C(=O)C(C#N)=Cc1cccc(CCNC(=O)N[C@@H](Cc2coc3ccccc23)B(O)O)c1)C1CCOCC1
Cat: high

Compound: CC1(C)COCCN1C(=O)C(C#N)=Cc1cccc(CCOC(=O)N[C@@H](Cc2coc3ccccc23)B(O)O)c1
Cat: low

Compound: N#CC(=Cc1cccc(CCOC(=O)N[C@@H](Cc2ccccc2)B(O)O)c1)C(=O)N(C1CCOCC1)C1CCOCC1
Cat: high
